The values you see were collected from patent US12661410B2.

Measured DC50 values are reported for all entries that follow.
test_system: RET(KD: 658-1114 G810R) (Homo sapiens, UniProt P07949, G810R)
Construct: 658-1114; expressed in transfected cells; host or cells: 293T.165 (293T cells, generated in-house)
Sequence (P07949 658-1114 G810R): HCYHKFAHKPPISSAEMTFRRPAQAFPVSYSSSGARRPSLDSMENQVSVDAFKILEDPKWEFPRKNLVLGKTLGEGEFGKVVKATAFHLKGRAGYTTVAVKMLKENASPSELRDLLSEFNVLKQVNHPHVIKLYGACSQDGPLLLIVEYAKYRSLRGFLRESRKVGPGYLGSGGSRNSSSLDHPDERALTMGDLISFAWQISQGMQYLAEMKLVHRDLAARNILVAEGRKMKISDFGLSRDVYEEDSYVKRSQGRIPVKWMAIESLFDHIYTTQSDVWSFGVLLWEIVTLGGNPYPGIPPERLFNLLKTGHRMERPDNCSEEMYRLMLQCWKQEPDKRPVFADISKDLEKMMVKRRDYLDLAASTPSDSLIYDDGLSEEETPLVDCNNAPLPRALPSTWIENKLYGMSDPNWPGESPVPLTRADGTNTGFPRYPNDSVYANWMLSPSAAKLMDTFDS
method: HiBiT-Degradation, RET G810R degradation assay (Nano-Glo HiBiT Lytic), 293T.165 cells
Format: cell-based
test_context: 6.0 hours, half-maximal degradation concentration, read-out: 293T.165 RET(KD: 658-1114 G810R) 6.0 hours (DC50)
readout_type: DC50

compound	readout_type	experimental_result
CCC1(C(=O)NC(C)C)CCN(c2ccc(-c3nc(-c4cnn([C@H]5CC[C@H](N6CCC(c7ccc(NC8CCC(=O)NC8=O)cc7F)CC6)CC5)c4)cn4ncc(C#N)c34)cn2)CC1 (single isomer, unassigned) [Compound 122]	DC50	< 50 nM
N#Cc1cnn2cc(-c3ccc(N4CCN(C(=O)CN5CCC(c6ccc(NC7CCC(=O)NC7=O)cc6)CC5)CC4)cc3)cc(-c3ccc(N4CCOCC4)nc3)c12 (stereo not shown) [Compound 24]	DC50	< 100 nM
CCC1(C(=O)NC(C)C)CCN(c2ccc(-c3nc(-c4cnn(C5CCN(C(=O)CC6(O)CCN(c7ccc(N[C@@H]8CCC(=O)NC8=O)cc7Cl)CC6)CC5)c4)cn4ncc(C#N)c34)cn2)CC1 (single isomer, unassigned) [Compound 11]	DC50	< 50 nM
COCC1(Cc2ccccn2)CCN(c2ccc(-c3nc(-c4cnn(C5CCN(C(=O)CN6CCC(c7ccc(NC8CCC(=O)NC8=O)cc7F)CC6)CC5)c4)cn4ncc(C#N)c34)cn2)CC1 (stereo not shown) [Compound 78]	DC50	< 100 nM
COc1ccc(CN2C3CC2CN(c2ccc(-c4nc(-c5cnn([C@H]6CC[C@H](N7CCN(c8cc(OC)c(NC9CCC(=O)NC9=O)cc8F)CC7)CC6)c5)cn5ncc(C#N)c45)cn2)C3)cn1 (relative stereo) [Compound 167]	DC50	< 50 nM
CCC1(C(=O)NC2CCC2)CCN(c2ccc(-c3nc(-c4cnn(C5CCN([C@@H]6CCN(c7ccc(N[C@@H]8CCC(=O)NC8=O)cc7F)CC6(F)F)CC5)c4)cn4ncc(C#N)c34)cn2)CC1 (single isomer, unassigned) [Compound 192]	DC50	< 100 nM
CCC1(C(=O)NC(C)C)CCN(c2ccc(-c3cc(-c4cnn(C5CCN(C(=O)CN6CCC(c7ccc(NC8CCC(=O)NC8=O)cc7F)CC6)CC5)c4)cn4ncc(C#N)c34)cc2)CC1 (stereo not shown) [Compound 58]	DC50	< 50 nM
